- System: P. aeruginosa ATCC 35151
- PROCEDURE_SUMMARY: microbe, parasite or virus in culture
- Assay type: cell-based
- CONDITION: Pseudomonas aeruginosa, ATCC35151, read-out: MIC P. aeruginosa ATCC 35151
OBSERVABLE: MIC

Examples from the recorded data:
MOLECULE: O=C(O)c1c(F)ccc2c1OB(O)[C@@H](NC(=O)C(NC(=O)N1CCN(S(=O)(=O)c3ccc(O)c(O)c3Cl)C1=O)c1ccc(P(=O)(O)O)cc1)C2 (some centres unmarked)
ASSAYED_SYSTEM: P. aeruginosa ATCC 35151
MIC: < 1 µg/mL
//
MOLECULE: CS(=O)(=O)N1CCN(C(=O)NC(C(=O)N[C@H]2Cc3cccc(C(=O)O)c3OB2O)c2ccc(P(=O)(O)O)c(F)c2O)C1=O (some centres unmarked)
ASSAYED_SYSTEM: P. aeruginosa ATCC 35151
MIC: 8 to 16 µg/mL

# map each molecule to its MIC
1. O=C(O)c1cccc2c1OB(O)[C@@H](NC(=O)C(NC(=O)c1ncccc1Cl)c1ccc(P(=O)(O)O)cc1)C2 (some centres unmarked)
2. O=C(O)c1cccc2c1OB(O)[C@@H](NC(=O)[C@H](NC(=O)c1ccn[nH]c1=O)c1ccc(P(=O)(O)O)cc1)C2 (single isomer, unassigned)
3. CS(=O)(=O)N1CCC[C@H]1C(=O)N[C@@H](C(=O)N[C@H]1Cc2cccc(C(=O)O)c2OB1O)c1ccc(P(=O)(O)O)cc1
4. O=C(N[C@H](C(=O)N[C@H]1Cc2cccc(C(=O)O)c2OB1O)c1ccc(P(=O)(O)O)cc1)c1cnc2ccnn2c1 (single isomer, unassigned)

1: 8 to 16 µg/mL; 2: < 1 µg/mL; 3: 2 to 4 µg/mL; 4: 2 to 4 µg/mL
